Here, each record is paired with measured kcat of FX activation by FIXa in the Xase complex (FVIIIa, PC/PS vesicles, Ca2+) data.
- tested-on: Factor X (FX), P00742
- Sequence (P00742 whole entry, looked up): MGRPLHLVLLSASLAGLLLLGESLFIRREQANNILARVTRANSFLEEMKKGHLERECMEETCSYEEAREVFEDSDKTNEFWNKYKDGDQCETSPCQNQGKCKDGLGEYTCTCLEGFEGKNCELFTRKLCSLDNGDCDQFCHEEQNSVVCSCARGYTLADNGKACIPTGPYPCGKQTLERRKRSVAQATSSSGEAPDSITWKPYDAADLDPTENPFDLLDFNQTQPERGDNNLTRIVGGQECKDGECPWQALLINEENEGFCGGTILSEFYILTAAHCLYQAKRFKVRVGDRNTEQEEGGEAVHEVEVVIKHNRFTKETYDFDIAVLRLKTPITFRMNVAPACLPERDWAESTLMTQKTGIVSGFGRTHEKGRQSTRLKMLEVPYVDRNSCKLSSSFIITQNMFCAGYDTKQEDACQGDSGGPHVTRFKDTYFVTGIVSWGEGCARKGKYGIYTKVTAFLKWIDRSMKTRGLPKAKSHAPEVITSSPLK
attribute-measured: kcat of FX activation by FIXa in the Xase complex (FVIIIa, PC/PS vesicles, Ca2+) (s⁻¹)

protein	unit-annotation	recorded-measurement
FIXa-Y155F/K247N/N249S/R318Y/R338E/R403E (protein) chain 1: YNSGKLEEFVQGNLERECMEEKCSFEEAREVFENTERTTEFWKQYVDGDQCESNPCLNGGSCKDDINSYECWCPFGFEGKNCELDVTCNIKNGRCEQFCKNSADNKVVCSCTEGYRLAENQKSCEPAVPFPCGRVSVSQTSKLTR chain 2: VVGGEDAKPGQFPWQVVLNGKVDAFCGGSIVNEKWIVTAAHCVETGVKITVVAGEHNIEETEHTEQNRSVIRIIPHHNYNAAINKYNHDIALLELDEPLVLNSYVTPICIADKEYTNIFLKFGSGYVSGWGRVFHKGYSALVLQYLRVPLVDRATCLESTKFTIYNNMFCAGFHEGGRDSCQGDSGGPHVTEVEGTSFLTGIISWGEECAMKGKYGIYTKVSEYVNWIKEKTKLT	s⁻¹	5.7
FIXa-R318Y/R338E/T343R/E410N (protein) chain 1: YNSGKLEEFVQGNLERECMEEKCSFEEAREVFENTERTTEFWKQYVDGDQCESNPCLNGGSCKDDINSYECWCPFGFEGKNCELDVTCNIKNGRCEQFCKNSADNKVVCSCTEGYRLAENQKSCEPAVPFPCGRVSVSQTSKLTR chain 2: VVGGEDAKPGQFPWQVVLNGKVDAFCGGSIVNEKWIVTAAHCVETGVKITVVAGEHNIEETEHTEQKRNVIRIIPHHNYNAAINKYNHDIALLELDEPLVLNSYVTPICIADKEYTNIFLKFGSGYVSGWGRVFHKGYSALVLQYLRVPLVDRATCLESTKFRIYNNMFCAGFHEGGRDSCQGDSGGPHVTEVEGTSFLTGIISWGEECAMKGKYGIYTKVSRYVNWIKNKTKLT	s⁻¹	4.9
FIXa-Y155F/R318Y/R338E/T343R/E410N (protein) chain 1: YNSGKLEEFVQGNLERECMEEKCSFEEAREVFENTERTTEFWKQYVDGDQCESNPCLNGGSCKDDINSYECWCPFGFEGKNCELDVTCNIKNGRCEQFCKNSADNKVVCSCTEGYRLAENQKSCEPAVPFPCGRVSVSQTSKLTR chain 2: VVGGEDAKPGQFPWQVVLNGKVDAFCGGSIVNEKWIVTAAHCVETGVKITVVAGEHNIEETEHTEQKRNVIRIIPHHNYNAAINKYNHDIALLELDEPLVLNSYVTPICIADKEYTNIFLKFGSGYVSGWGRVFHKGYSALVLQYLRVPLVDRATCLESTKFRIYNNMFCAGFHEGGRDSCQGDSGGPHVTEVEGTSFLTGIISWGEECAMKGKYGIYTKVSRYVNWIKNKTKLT	s⁻¹	9.2
FIXa-R318Y/R338E/N346D/R403E/E410N (protein) chain 1: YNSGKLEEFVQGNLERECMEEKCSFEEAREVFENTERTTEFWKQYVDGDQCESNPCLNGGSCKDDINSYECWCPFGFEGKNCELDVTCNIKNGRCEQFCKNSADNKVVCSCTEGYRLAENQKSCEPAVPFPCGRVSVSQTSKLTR chain 2: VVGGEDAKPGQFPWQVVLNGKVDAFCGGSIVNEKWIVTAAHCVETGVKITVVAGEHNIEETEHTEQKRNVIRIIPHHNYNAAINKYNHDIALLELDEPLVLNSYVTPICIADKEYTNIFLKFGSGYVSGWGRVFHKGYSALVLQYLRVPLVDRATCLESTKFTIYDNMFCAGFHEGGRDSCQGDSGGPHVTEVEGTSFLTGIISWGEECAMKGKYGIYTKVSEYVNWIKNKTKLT	s⁻¹	2.5

Origin of values: patent US20210230570
